Recorded values, source PubChem BioAssay.

TARGET: Protein phosphatase methylesterase 1 (Homo sapiens)
MEASUREMENT PROTOCOL: PME-1 inhibitor activity retest, confirmation, biochemical, fluorescence polarization, FP-Rh probe, triplicate (AID 2171);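 note: 0% = enzyme with DMSO and 100% = wells lacking PME-1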
CONDITION LABEL: recombinant PME-1, FP-Rh probe fluorescence polarization; at 5.9 µM; hits give high values
Rule: inhibition of 30% or more gives fulfilled; anything lower gives not fulfilled.

molecule=CCOC(=O)CSc1nc2cc3c(cc2cc1C#N)OCCO3 assigned_label="not fulfilled"
molecule=CC(C)(C)c1cc(C(=O)N/N=C/c2ccc(-c3ccccc3[N+](=O)[O-])o2)n[nH]1 assigned_label="not fulfilled"
molecule=Cc1ccc(-c2nc(Nc3ccc(O)cc3)c3ccccc3n2)cc1 assigned_label="not fulfilled"
molecule=Nc1[nH]n(-c2ccccc2)c(=O)c1N=Nc1ccc2ncsc2c1 assigned_label=fulfilled
molecule=Cc1nc(S/C(=C/c2ccc(-c3cc(Cl)ccc3C)o2)C(=O)O)n[nH]1 assigned_label="not fulfilled"
molecule=Oc1ccc(/C=N/Nc2cccc3cccnc23)c(O)c1 assigned_label=fulfilled
molecule=Fc1ccc2nc(Nc3nc4cc5c(cc4s3)OCCO5)sc2c1 assigned_label=fulfilled
molecule=O=C(O)c1cc(NN=C2c3ccccc3-c3ccccc32)ccc1Cl assigned_label=fulfilled
molecule=COC(=O)c1ccc(NC(=O)Nc2ccc(OC)cc2)cc1 assigned_label="not fulfilled"
molecule=O=[N+]([O-])c1ccccc1/C=C/C=N/Nc1ccc(S(=O)(=O)Nc2ccc(Cl)cc2)cc1[N+](=O)[O-] assigned_label="not fulfilled"
molecule=CCOc1ccc2nc(SCC(=O)Nc3ccc4c(c3)OCCO4)[nH]c2c1 assigned_label="not fulfilled"
molecule=O=C(N/N=C/c1cc(Cl)c(O)c(Cl)c1)c1cc2c(ccc3ccccc32)o1 assigned_label=fulfilled
molecule=CC1=CN2C(=N)/C(=C/c3ccc([N+](=O)[O-])o3)C(=O)N=C2S1 assigned_label="not fulfilled"
molecule=Brc1ccc(N=NNc2ccccc2)cc1 assigned_label=fulfilled
molecule=Nc1c(Cl)cc(-c2[nH]c3cc(C(=O)NCCO)ccc3c(=O)c2O)cc1Cl assigned_label="not fulfilled"
molecule=Oc1c(Br)cc(Br)c(/C=N/n2c(-c3ccccc3)n[nH]c2=S)c1Br assigned_label=fulfilled
molecule=CCOc1cc(N(CC)CC)ccc1/C=C(/C#N)c1nc2ccccc2[nH]1 assigned_label="not fulfilled"
molecule=COc1ccccc1-c1sc2ccccc2c1-c1ccc(C(C)=O)cc1 assigned_label="not fulfilled"
molecule=COc1cc(/C=N/Nc2nc(-c3ccc(S(=O)(=O)N(C)C)cc3)cs2)ccc1O assigned_label="not fulfilled"
molecule=COc1cc(/C=N/NC(=O)c2cc3c(ccc4ccccc43)o2)cc(OC)c1O assigned_label="not fulfilled"
molecule="CN1C(=O)NC(c2ccccc2[N+](=O)[O-])C2=C1CCCC2=O (stereo not drawn)" assigned_label=fulfilled
molecule=Cc1cc(N(C)C)ccc1N=Nc1ccc2ncccc2c1 assigned_label=fulfilled

---

TARGET: Steroidogenic factor 1 (Homo sapiens) (UniProt Q13285)
Sequence (Q13285 whole entry, looked up): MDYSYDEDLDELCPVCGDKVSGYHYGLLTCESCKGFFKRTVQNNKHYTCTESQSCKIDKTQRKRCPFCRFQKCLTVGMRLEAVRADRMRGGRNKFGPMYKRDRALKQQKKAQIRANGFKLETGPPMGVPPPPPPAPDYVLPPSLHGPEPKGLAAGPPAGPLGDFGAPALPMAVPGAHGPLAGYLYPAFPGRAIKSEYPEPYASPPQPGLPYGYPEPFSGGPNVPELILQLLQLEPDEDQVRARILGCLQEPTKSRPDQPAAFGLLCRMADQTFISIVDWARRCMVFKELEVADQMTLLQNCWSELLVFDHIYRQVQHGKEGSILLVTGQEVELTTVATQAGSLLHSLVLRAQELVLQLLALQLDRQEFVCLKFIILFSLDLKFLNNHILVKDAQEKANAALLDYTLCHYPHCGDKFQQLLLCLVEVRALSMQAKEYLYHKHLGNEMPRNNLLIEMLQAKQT
MEASUREMENT PROTOCOL: SF1 (NR5A1) inverse agonists, counter-screen for LRH-1 inverse agonist project, cell-based, luminescence, high throughput (AID 651614);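 note: cells cotransfected with StAR promoter reporter and SF1 expression vector; 0% = vehicle on cells with receptor and 100% = vehicle on cells lacking receptor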
CONDITION LABEL: cell-based SF1 luciferase reporter, at 3.6 µM, hits give high values
Rule: inhibition of 90% or more gives 1; anything lower gives -1.

substance_smiles=Cc1cc(C(=O)N/N=C/c2ccc([N+](=O)[O-])o2)c(C)o1 target="Steroidogenic factor 1 (Homo sapiens) (UniProt Q13285)" assigned_label=-1
substance_smiles=COc1ccc(CCNC(=O)CSc2nc(O)c(CCC(C)C)c(=O)[nH]2)cc1OC target="Steroidogenic factor 1 (Homo sapiens) (UniProt Q13285)" assigned_label=-1
substance_smiles=O=C(Sc1cccc2cccnc12)c1ccccc1Br target="Steroidogenic factor 1 (Homo sapiens) (UniProt Q13285)" assigned_label=-1
substance_smiles=COc1ccc(OC)c(Cc2cnc3nc(N)nc(N)c3c2C)c1 target="Steroidogenic factor 1 (Homo sapiens) (UniProt Q13285)" assigned_label=-1
substance_smiles=CN(C)c1ccc(C=c2c3ccccc3n3c2c2c([n+]3C)CCCC2)cc1 target="Steroidogenic factor 1 (Homo sapiens) (UniProt Q13285)" assigned_label=1
substance_smiles=CC(C)N(c1ccccc1)c1ccc(NC(=O)CCl)cc1 target="Steroidogenic factor 1 (Homo sapiens) (UniProt Q13285)" assigned_label=-1

---

TARGET: Steroidogenic factor 1 (Homo sapiens)
MEASUREMENT PROTOCOL: SF1 (NR5A1) inverse agonists, counter-screen for LRH-1 inverse agonist project, cell-based, luminescence, high throughput (AID 651614);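 note: cells cotransfected with StAR promoter reporter and SF1 expression vector; 0% = vehicle on cells with receptor and 100% = vehicle on cells lacking receptor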
CONDITION LABEL: cell-based SF1 luciferase reporter, at 3.6 µM, hits give high values
Measured inhibition values are reported for all entries that follow.
ENDPOINT LABEL: inhibition (%)

substance_smiles=N#CC(=C1C=CC(=NO)C(Cl)=C1)c1ccccc1 readout_value=61.3
substance_smiles=Cc1nc2ccc(NC(=O)c3cc(S(=O)(=O)N(C)c4ccccc4)ccc3Cl)cc2s1 readout_value=59.5
substance_smiles=Cc1nnc(SCC(=O)Nc2ccc(N3CCN(S(C)(=O)=O)CC3)cc2)o1 readout_value=50.2
substance_smiles=Cn1c(CCN2CCN(c3ccccn3)CC2)nc2cc(NC(=O)COc3ccc(Cl)cc3)ccc21 readout_value=51.4

---

TARGET: Nuclear receptor subfamily 5 group A member 2 (Homo sapiens)
MEASUREMENT PROTOCOL: LRH-1 (NR5A2) inverse agonists, retest, confirmation, cell-based, luminescence (AID 651613);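 note: HEK293T cells co-transfected with LRH-1 and StAR promoter luciferase reporter; 0% = vehicle wells and 100% = parental cells lacking receptor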
CONDITION LABEL: cell-based LRH-1 luciferase reporter, inverse agonism; at 3.6 µM; hits give high values
Rule: inhibition of 60% or more gives 1 (yes); anything lower gives 0 (no).

molecule=O=C(NNc1ccc([N+](=O)[O-])cc1[N+](=O)[O-])c1ccco1 target="Nuclear receptor subfamily 5 group A member 2 (Homo sapiens)" assigned_label="0 (no)"
molecule=COc1ccc(CCNC(=O)CSc2nc3[nH]ncc3c(=O)n2-c2ccccc2Br)cc1OC target="Nuclear receptor subfamily 5 group A member 2 (Homo sapiens)" assigned_label="0 (no)"
molecule=O=C(Nc1ccccc1)Nc1cc(OCC(F)(F)F)cc(OCC(F)(F)F)c1 target="Nuclear receptor subfamily 5 group A member 2 (Homo sapiens)" assigned_label="1 (yes)"
molecule=CC(=O)Nc1ccc(NC(=O)CSc2ccc(-c3ccco3)nn2)cc1 target="Nuclear receptor subfamily 5 group A member 2 (Homo sapiens)" assigned_label="0 (no)"
molecule="COc1ccc(C2=Nn3c(nnc3-c3ccccc3F)SC2)cc1OC1CCOC1 (stereo not drawn)" target="Nuclear receptor subfamily 5 group A member 2 (Homo sapiens)" assigned_label="1 (yes)"
molecule=CCN1/C(=C/c2sc(-c3ccccc3C)c[n+]2C)Sc2ccccc21 target="Nuclear receptor subfamily 5 group A member 2 (Homo sapiens)" assigned_label="1 (yes)"
molecule=CCOc1ccc(NC(=O)CN2CCN(C3c4ccccc4-c4ccccc43)CC2)cc1 target="Nuclear receptor subfamily 5 group A member 2 (Homo sapiens)" assigned_label="1 (yes)"
molecule=COc1cc2c(cc1OC)CN(C(=O)c1cc(=O)c3ccccc3o1)CC2 target="Nuclear receptor subfamily 5 group A member 2 (Homo sapiens)" assigned_label="0 (no)"
molecule=Cc1ccc(/C=C2/CNC/C(=C/c3ccc(C)cc3)C2=O)cc1 target="Nuclear receptor subfamily 5 group A member 2 (Homo sapiens)" assigned_label="1 (yes)"
molecule=Cc1cccc(-n2c(CNC(=O)c3ccccc3)nnc2SCC(=O)Nc2nccs2)c1 target="Nuclear receptor subfamily 5 group A member 2 (Homo sapiens)" assigned_label="0 (no)"
molecule=COc1ccc(CC(=O)Nc2cccc(S(=O)(=O)N3CCCCCC3)c2)cc1OC target="Nuclear receptor subfamily 5 group A member 2 (Homo sapiens)" assigned_label="1 (yes)"
molecule="CC1CCCN(c2cc(N(C)CCO)c([N+](=O)[O-])c3nonc23)C1 (stereo not drawn)" target="Nuclear receptor subfamily 5 group A member 2 (Homo sapiens)" assigned_label="0 (no)"
molecule=CCC(=O)N1CCN(c2ccc(NC(=O)c3ccc([N+](=O)[O-])o3)cc2)CC1 target="Nuclear receptor subfamily 5 group A member 2 (Homo sapiens)" assigned_label="1 (yes)"
molecule=CC(=O)N1CCN(c2ccc(NC(=O)c3cccc([N+](=O)[O-])c3)cc2)CC1 target="Nuclear receptor subfamily 5 group A member 2 (Homo sapiens)" assigned_label="0 (no)"
molecule=COc1ccc(NS(=O)(=O)c2ccc(OCC(=O)N3CCOCC3)cc2)cc1Cl target="Nuclear receptor subfamily 5 group A member 2 (Homo sapiens)" assigned_label="0 (no)"
molecule=Cc1onc(-c2ccccc2Cl)c1-c1nc(-c2ccccn2)no1 target="Nuclear receptor subfamily 5 group A member 2 (Homo sapiens)" assigned_label="1 (yes)"
molecule=CCOc1ccc(NC(=O)CSc2nccn(-c3ccc4c(c3)OCCO4)c2=O)cc1 target="Nuclear receptor subfamily 5 group A member 2 (Homo sapiens)" assigned_label="0 (no)"
molecule="CC1CCC(C(C)C)C(OC(=O)Cn2c(-c3ccccc3)[n+](C)c3ccccc32)C1 (stereo not drawn)" target="Nuclear receptor subfamily 5 group A member 2 (Homo sapiens)" assigned_label="1 (yes)"
molecule="O=C(NC1CCCC(C(F)(F)F)C1)c1ccc([N+](=O)[O-])o1 (stereo not drawn)" target="Nuclear receptor subfamily 5 group A member 2 (Homo sapiens)" assigned_label="1 (yes)"
molecule=O=C(O)/C=C/C(=O)Nc1ccccc1SC(F)(F)C(F)(F)C(F)(F)F target="Nuclear receptor subfamily 5 group A member 2 (Homo sapiens)" assigned_label="0 (no)"
molecule="COc1cccc2c1C1COC3C4CC(C(=O)O)C(C(C2)N13)N4C (stereo not drawn)" target="Nuclear receptor subfamily 5 group A member 2 (Homo sapiens)" assigned_label="0 (no)"
